Data origin: PubChem BioAssay (NCI)

Test system: SNB-19 CNS
Test: NCI-60 one-dose screen, 48 h (100 = growth as untreated, 0 = no growth, -100 = all killed)
Details: 10 µM
Experimental: Growth inhibition of the SNB-19 human tumor cell line is measured as a screen for anti-cancer activity. Cells are grown in 96 well plates and exposed to the test compound for 48 hours. Compounds are tested at a single concentration, which is 10^-5 M for most compounds. The reported endpoint is percent growth (GI% or GIPRCNT), where numbers from 0 - 100% represent growth inhibition, and numbers from -100% - 0 represent cell death. For example, a value of 40 represents 60% growth inhibition. […]
The panel holds about 83,000 compounds, 20% with a hit somewhere; the sample as a whole holds those more often.
Lab note: cut-off is 40%. Strictly less in growth is Yes. Exactly 40% or more is No.

Molecule	Answer Label
CN1CCN(c2cc3c(cc2F)c(=O)c(C(=O)O)cn3-c2ccc(F)cc2)CC1	No
C=CCN(CC=C)C(=O)[C@H](CC)[C@@H]1CC[C@@H](C)[C@@H]([C@H](C)[C@@H](O)[C@@H](C)C(=O)[C@H](CC)C2O[C@]3(C=C[C@@H](O)[C@]4(CC[C@@](C)([C@H]5CC[C@](O)(CC)[C@H](C)O5)O4)O3)[C@H](C)C[C@@H]2C)O1 (stereo partly specified)	Yes
COc1cc(-c2nc3ccccc3o2)cc(CN2CCCCC2)c1O	No
O=C(c1ccccc1)N(C(=O)c1ccccc1)N1CCCC1	No
COc1ccc(-c2nn(-c3cccc(Cl)c3)cc2C=C(C#N)C#N)cc1	Yes
O=C(CCl)Oc1ccc(OC(=O)CCl)cc1	No

Is growth of IC(I)I strictly below 40%?
No

Is growth of CC(C)(C)OC(=O)N1CCc2c(sc3ncnc(N/N=C/c4cccc5ccccc45)c23)C1 strictly below 40%?
Yes

Is growth of O=C(Nc1ccc(F)cc1)c1cc2ccccc2cc1O strictly below 40%?
No

Is growth of COc1ccccc1-n1c(-c2sc(NC(C)=O)nc2C)n[nH]c1=S strictly below 40%?
No
